assay: Acute toxicity test; type: in vivo, male mice; settings: mouse, in vivo; intravenous, administered as aqueous sodium hydroxide solution, male mice
value kind: LD50

Enquiry: Sample "CCCN(CCC)S(=O)(=O)c1ccc(C(=O)SCCC(=O)N2[C@@H](c3ccccc3O)SC[C@H]2C(=O)O)cc1" — what was its LD50?
Return: > 500 mg/kg
